Would you mind telling me the reported kinase still bound, per cent of control of each entry?
Test system: ABL1 (human), P00519 [H396P]
protocol_notes: KINOMEscan competition binding
details: compound 10.0 µM
Could you give me the number in %? Just the number is fine.

What does the record list as kinase still bound, per cent of control for Cc1ccc(C(=O)Nc2cccc(C(F)(F)F)c2)cc1Nc1cncc(C(N)=O)c1 ? 100

// returns reported kinase still bound, per cent of control for input CCN(CC)CCCCNc1ncc2c(n1)N(C)C(=O)N(c1c(Cl)c(OC)cc(OC)c1Cl)C2 100

Dear colleague, I am looking for the recorded kinase still bound, per cent of control of the following compound: C=CC(=O)Nc1cccc(Oc2nc(Nc3ccc(N4CCN(C)CC4)cc3OC)ncc2Cl)c1 100

// returns reported kinase still bound, per cent of control for input COc1cc(C(=O)NC2CCN(C)CC2)ccc1Nc1ncc2c(n1)N(C1CCCC1)CCC(=O)N2C(C)C 100

Consider the compound shown here: C=CC(=O)Nc1ccc(CN(C(=O)Nc2c(Cl)c(OC)cc(OC)c2Cl)c2cc(Nc3ccc(N4CCN(C)CC4)cc3)ncn2)cc1 What is its recorded kinase still bound, per cent of control? 20

Could you share which kinase still bound, per cent of control value was measured for CCOc1cc(N2CCC(O)CC2)ccc1Nc1ncc2c(n1)N(C)c1ccccc1C(=O)N2C ? 100

Need kinase still bound, per cent of control, item COc1cc(C(=O)NC2CCN(C)CC2)ccc1Nc1ncc2c(n1)N(C1CCCC1)C(C)CC(=O)N2C (stereo not drawn) 100

Recorded kinase still bound, per cent of control for CCc1nc(-c2cccc(C)c2)c(-c2ccnc(NC(=O)c3ccccc3)c2)s1 , please? 3

Which kinase still bound, per cent of control is listed for CNC(=O)c1ccc(Nc2cc(Nc3ccccc3S(=O)(=O)C(C)C)c3cc[nH]c3n2)nc1 ? 10

Please report the recorded kinase still bound, per cent of control for COc1cc(N2CCC(C(N)=O)CC2)ccc1Nc1nc(N)c(Cl)c(Nc2ccccc2S(=O)(=O)C(C)C)n1 . 100

Form field: reported kinase still bound, per cent of control of CS(=O)(=O)N1CCN(Cc2cc3nc(-c4cccc5[nH]ncc45)nc(N4CCOCC4)c3s2)CC1 100

If you can, please state the reported kinase still bound, per cent of control value of CCN(CC)CCCCNc1ncc2cc(-c3cc(OC)cc(OC)c3)c(NC(=O)NC(C)(C)C)nc2n1 . 100

What kinase still bound, per cent of control value was documented for this compound, COc1cc(N2CCN(C)CC2)ccc1Nc1ncc2c(n1)N(C)c1ccccc1C(=O)N2C ? 100

Param item = Cn1c(=O)n(-c2ccc(C(C)(C)C#N)cc2)c2c3cc(-c4cnc5ccccc5c4)ccc3ncc21 ; retrieve measured kinase still bound, per cent of control. 100

Consider the compound N#CCNC(=O)c1ccc(-c2ccnc(Nc3ccc(N4CCOCC4)cc3)n2)cc1 and give its measured kinase still bound, per cent of control. 65

What does the record list as kinase still bound, per cent of control for OCCCNc1cc(-c2ccnc(Nc3cccc(Cl)c3)n2)ccn1 ? 100

Which kinase still bound, per cent of control is reported for this compound? Cc1cn(-c2cc(C(=O)Nc3ccc(C)c(NC(=O)c4ccno4)c3)cc(C(F)(F)F)c2)cn1 16

Which kinase still bound, per cent of control reading was recorded for the compound COc1ccc(N(C(=O)Oc2cc(C(=O)Nc3cccc(C(F)(F)F)c3)ccc2C)c2ccnc(Nc3ccc(N4CCN(C)CC4)cc3)n2)c(OC)c1 ? 3.6
